So I've got a bunch of compounds here, and I need their absolute recovery values.
# test.method.notes: absolute recovery over mixed-bed multilayer solid-phase extraction; higher = better recovery
# measurement.setup: surface water; enrichment method: SPE
Give bare numbers, in %.

compound	absolute recovery [%]
C=CCC1C=C(C)CC(C)CC(OC)C2OC(O)(C(=O)C(=O)N3CCCCC3C(=O)OC(C(C)=CC3CCC(O)C(OC)C3)C(C)C(O)CC1=O)C(C)CC2OC (stereo unspecified) [FK-506 (=Tacrolimus)]	66.5
C[NH2+]C(CC(C)C)C(=O)NC1C(=O)NC(CC(N)=O)C(=O)NC2C(=O)NC3C(=O)NC(C(=O)NC(C(=O)[O-])c4cc(O)cc(O)c4-c4cc3ccc4O)C(O)c3ccc(c(Cl)c3)Oc3cc2cc(c3OC2OC(CO)C(O)C(O)C2OC2CC(C)([NH3+])C(O)C(C)O2)Oc2ccc(cc2Cl)C1O (stereo unspecified) [Vancomycin]	90.4
COC(=O)C1C(OC(=O)c2ccccc2)CC2CCC1[NH+]2C (stereo unspecified) [Cocaine]	96.4
C=CC(=O)OCCOC(=O)CCC(=O)[O-] [Mono(2-acryloyloxyethyl)-succinate]	71.7
CCC(=O)OC(Cc1ccccc1)(c1ccccc1)C(C)C[NH+](C)C (stereo unspecified) [Propoxyphene]	94.6
CSc1nc(NC(C)C)nc(NC(C)C)n1 [Prometryn G]	92.8
Cc1cccc(N(C)C(=S)Oc2ccc3ccccc3c2)c1 [Tolnaftat]	98
Cn1ncc(N)c(Cl)c1=O [Chloridazon-methyl-desphenyl]	102
COC(=O)Nc1nc2ccccc2[nH]1 [Carbendazim]	94.3
CCC1(c2cccc(O)c2)CCCC[NH+](C)C1 (stereo unspecified) [Meptazinol]	92.9

Could you tell me absolute recovery for each of these compounds? They are listed below.
1. OCC(O)C[NH+]1CCN(c2ccccc2)CC1 (stereo unspecified) [Dropropizine]
2. CCN(CC)C(=O)Nc1ccc(OCC(O)C[NH2+]C(C)(C)C)c(C(C)=O)c1 (stereo unspecified) [Celiprolol]
3. C[NH+]=CNc1ccc(C)cc1C [N-(2-4-dimethylphenyl)-N-methylformamidine]
4. CCCOC(=O)NCCC[NH+](C)C [Propamocarb]
5. CC=CC(=O)N(CC)C(CC)C(=O)N(C)C (stereo unspecified) [Crotethamide]
6. CC(C)c1ccc(N)cc1 [4-Isopropylanilin]
7. [O-][n+]1nc(-n2ccnc2)nc2ccc(Cl)cc21 [Triazoxide]

1: 108; 2: 84.3; 3: 27.7; 4: 83.9; 5: 94.6; 6: 80.7; 7: 91.5

Hey, just so you know, these numbers are from the supplement of paper PMC6470124.
